tested on: P. falciparum stage V gametocytes; parameters: BacTiter-Glo ATP luminescence viability of purified stage V gametocytes in 384-well plates, per cent inhibition versus DMSO; settings: 48 h, 5 µM, inhibitor, % Inhibition
Screen size: about 13,000 compounds; about 3,200 (25%) showed an effect of 50% or more. This is one part of the list.
What % Inhibition was measured for each of the following?
Just the number in %, nothing appended.

Query :: Supply recorded % Inhibition for O=C(Nc1ccccc1Cl)NC1CCC(CN2CCC(c3c[nH]c4ccccc34)CC2)CC1 (stereo not shown) [TCMDC-140196] here.
Result :: 17.3

Query :: Supply recorded % Inhibition for FC(F)(F)c1ccc(NC(=S)NC2CCC(CN3CCC(c4c[nH]c5ccccc45)CC3)CC2)cc1 (stereo not shown) [TCMDC-140178] here.
Result :: 78.37

Query :: Supply recorded % Inhibition for O=C(Nc1cccc(-c2cccc(-c3nc4ccccc4[nH]3)c2)c1)NC1CC1c1ccccc1 (stereo not shown) [TCMDC-133253] here.
Result :: -2.475

Query :: Supply recorded % Inhibition for FC(F)(F)c1ccc(NC(=S)NC2CCC(CN3CCC(c4c[nH]c5ccccc45)CC3)CC2)cc1 (stereo not shown) [TCMDC-140198] here.
Result :: 109.8
